test: NOMO-1 AML cell viability reduction, primary screen, STK33 inhibitor project, CellTiter-Glo luminescence (AID 2330); settings: NOMO-1 AML viability, 72 h, active compounds read high, concentration not given here
Among all 37,000 compounds or so, about 2,800 (7.6%) were called active. Not shown: some 1% with an inconclusive outcome. This excerpt belongs to a sample that is enriched for actives.
Reported inhibition by item:
Quantity: inhibition (%)

>>> endpoint_result("Cc1ccc(S(=O)(=O)N(C)C[C@@H]2Oc3c(NC(=O)Nc4c(C)noc4C)cccc3C(=O)N([C@@H](C)CO)C[C@@H]2C)cc1")
22.7
>>> endpoint_result("COc1ccc(CN(C)C[C@H]2Oc3c(NC(=O)C4CCCCC4)cccc3C(=O)N([C@@H](C)CO)C[C@@H]2C)cc1")
15.7
>>> endpoint_result("C[C@@H]1CN([C@H](C)CO)C(=O)Cc2cc(NC(=O)CCN3CCOCC3)ccc2O[C@@H]1CN(C)S(C)(=O)=O")
5.67
>>> endpoint_result("C[C@@H]1CN([C@H](C)CO)C(=O)c2cc(NC(=O)CCN3CCOCC3)ccc2O[C@H]1CN(C)Cc1ccc(Oc2ccccc2)cc1")
5.92
>>> endpoint_result("COC(=O)c1cc(OC)c(OC)cc1NC(=O)COc1ccccc1Cl")
-12.9
>>> endpoint_result("COc1ccc(C)c(Cn2c(-c3nonc3N)nc3ccccc32)c1")
112
>>> endpoint_result("Cc1cccc(C)c1NC(=O)C(C)N(c1ccc(Cl)cc1)S(C)(=O)=O (stereo unspecified)")
-16.6
>>> endpoint_result("COc1ccc(C(=O)CSc2nc3ccc(OC)cc3[nH]2)cc1")
3.9
>>> endpoint_result("Cc1noc(C)c1NC(=O)Nc1cccc2c1O[C@@H](CN(C)Cc1ccc3c(c1)OCO3)[C@@H](C)CN([C@@H](C)CO)C2=O")
13.5
>>> endpoint_result("Cc1ccc(S(=O)(=O)N(C)C[C@@H]2Oc3ccc(NS(=O)(=O)c4c(C)noc4C)cc3CC(=O)N([C@H](C)CO)C[C@H]2C)cc1")
-13.6
>>> endpoint_result("CC1(C)Cc2c(sc3ncn4nc(COc5ccc(Cl)cc5)nc4c23)C(C)(C)N1")
142
>>> endpoint_result("C[C@H](CO)N1C[C@H](C)[C@@H](CN(C)Cc2ccc(Cl)c(Cl)c2)Oc2c(NC(=O)C3CCCCC3)cccc2C1=O")
102
>>> endpoint_result("COC(=O)c1ccccc1NC(=O)CNS(=O)(=O)c1cc(Cl)ccc1Cl")
-6.45
>>> endpoint_result("C[C@H](CO)N1C[C@H](C)[C@H](CN(C)Cc2ccc3c(c2)OCO3)Oc2c(NS(=O)(=O)c3ccccc3)cccc2C1=O")
-8.2
>>> endpoint_result("C[C@@H]1CN([C@H](C)CO)C(=O)c2cccc(NC(=O)c3nc4ccccc4s3)c2O[C@H]1CN(C)S(=O)(=O)c1ccc(Cl)cc1")
61.5
>>> endpoint_result("C[C@@H]1CN([C@H](C)CO)C(=O)c2cccc(NS(=O)(=O)c3cn(C)cn3)c2O[C@H]1CN(C)Cc1ccc(C(=O)O)cc1")
-16.7

====

Reported inhibition by item:
assay: NOMO-1 AML cell viability reduction, primary screen, STK33 inhibitor project, CellTiter-Glo luminescence (AID 2330); conditions: NOMO-1 AML viability, 72 h, active compounds read high, concentration not given here
Out of some 37,000 compounds screened, about 2,800 (7.6%) were called active. About 1% were inconclusive and are not listed. The full list was thinned out, with actives kept by preference.
Quantity: inhibition

>>> endpoint_result("C[C@@H]1CN([C@@H](C)CO)C(=O)c2cccc(NC(=O)c3ccc(-c4nccs4)cc3)c2O[C@@H]1CN(C)Cc1ccncc1")
"35.3% (inactive)"
>>> endpoint_result("CC[C@]1(O)C[C@@H]2CN(CCc3c([nH]c4ccccc34)[C@@](C(=O)OC)(c3cc4c(cc3OC)N(C)[C@H]3[C@@](O)(C(=O)OC)[C@H](OC(C)=O)[C@]5(CC)C=CCN6CC[C@]43[C@@H]65)C2)C1")
"112% (active)"
>>> endpoint_result("Cc1nnc(SCC(=O)Nc2cc(Cl)ccc2C)s1")
"22.1% (inactive)"
>>> endpoint_result("Cc1ccc(S(=O)(=O)Nc2ccc3c(c2)C(=O)N([C@H](C)CO)C[C@H](C)[C@H](CN(C)Cc2ccc(C(=O)Nc4ccccc4N)cc2)OCCCC[C@@H](C)O3)cc1")
"127% (active)"
>>> endpoint_result("C[C@@H]1CN([C@H](C)CO)C(=O)c2cc(NC(=O)Cc3ccccc3)ccc2O[C@H]1CN(C)S(=O)(=O)c1cn(C)cn1")
"4.97% (inactive)"
>>> endpoint_result("C[C@@H]1CN([C@@H](C)CO)C(=O)c2cccc(NC(=O)c3ccc(-c4nccs4)cc3)c2O[C@H]1CN(C)Cc1ccc(Cl)c(Cl)c1")
"97.3% (active)"
>>> endpoint_result("C[C@H](CO)N1C[C@H](C)[C@H](CN(C)C)Oc2ccc(NC(=O)Nc3ccc(F)cc3)cc2CC1=O")
"-3.06% (inactive)"
>>> endpoint_result("Cc1ccc(S(=O)(=O)N(C)C[C@@H]2Oc3ccc(NC(=O)Nc4ccc5c(c4)OCO5)cc3C(=O)N([C@@H](C)CO)C[C@@H]2C)cc1")
"45.7% (inactive)"
>>> endpoint_result("C[C@H](CO)N1C[C@H](C)[C@H](CN(C)Cc2ccc(C(=O)Nc3ccccc3N)cc2)Oc2ccc(NS(C)(=O)=O)cc2C1=O")
"50.3% (inactive)"
>>> endpoint_result("COc1ccc(NC(=O)Nc2ccc3c(c2)CC(=O)N([C@@H](C)CO)C[C@H](C)[C@@H](CN(C)S(=O)(=O)c2cn(C)cn2)O3)cc1")
"-12.8% (inactive)"
>>> endpoint_result("COC(=O)c1c(NC(=O)c2cc(-c3ccccn3)nc3ccc(Br)cc23)sc(C(=O)N(C)C)c1C")
"85.7% (active)"

====

assay: NOMO-1 AML cell viability reduction, primary screen, STK33 inhibitor project, CellTiter-Glo luminescence (AID 2330); conditions: NOMO-1 AML viability, 72 h, concentration not given here
The campaign covered roughly 37,000 compounds. About 2,800 (7.6%) were called active. Inconclusive results (about 1%) are left out. Rule as the data show it: active = inhibition above about 80%; inconclusive = no clear call, values can overlap the other calls; inactive = below that. The entries come from a sample that favours actives as a whole.
Classes used: active, inactive

>>> discrete_label("C[C@@H]1CN([C@H](C)CO)C(=O)Cc2cc(NC(=O)Nc3ccc4c(c3)OCO4)ccc2O[C@H]1CN(C)Cc1ccc(C(=O)O)cc1")
"inactive"
>>> discrete_label("C[C@H]1CN([C@@H](C)CO)C(=O)Cc2cc(NC(=O)CCCCCC(=O)Nc3ccccc3N)ccc2O[C@@H]1CN(C)Cc1ccncc1")
"inactive"
>>> discrete_label("C[C@@H]1CN([C@@H](C)CO)C(=O)c2cccc(NC(=O)C3CC3)c2O[C@@H]1CN(C)Cc1ccccc1")
"inactive"
>>> discrete_label("CC(C)NC(=O)Nc1ccc2c(c1)CC(=O)N([C@H](C)CO)C[C@@H](C)[C@@H](CN(C)C(=O)Nc1ccc3c(c1)OCO3)O2")
"inactive"
>>> discrete_label("C[C@@H]1CC[C@]2(C(=O)O)CC[C@]3(C)C(=CCC4[C@@]5(C)CC[C@H](O)[C@](C)(C(=O)O)C5CC[C@]43C)C2[C@]1(C)O (some centres not stated)")
"inactive"
>>> discrete_label("COc1ccc(CN(C)C[C@@H]2Oc3ccc(NC(=O)Nc4ccc5c(c4)OCO5)cc3CC(=O)N([C@H](C)CO)C[C@H]2C)cc1")
"inactive"
>>> discrete_label("C[C@H](CO)N1C[C@H](C)[C@@H](CN(C)Cc2ccc(C(=O)Nc3ccccc3N)cc2)Oc2c(NC(=O)C3CC3)cccc2C1=O")
"active"
